# Tested on: Staphylococcus aureus ssp. aureus (ATCC 6538)

{"mol smiles": "CCS[C@H]1O[C@H](C[N+]2=C3CCCCCN3CCC2)[C@@H](OCc2ccc3ccccc3c2)[C@H](OC(=O)c2ccccc2)[C@H]1OCc1ccccc1", "MIC": "< 6.25 µg/mL"}
{"mol smiles": "CCS[C@H]1O[C@H](C[N+]2=C3CCCCCN3CCC2)[C@@H](OCc2ccc3ccccc3c2)[C@H](OCc2ccccc2)[C@H]1OCc1ccccc1", "MIC": "< 6.25 µg/mL"}
{"mol smiles": "c1ccc(CO[C@H]2[C@@H](OCc3ccc4ccccc4c3)[C@H](OCc3ccccc3)[C@@H](C[N+]3=C4CCCCCN4CCC3)O[C@@H]2Sc2ccccc2)cc1", "MIC": "6.25 to 50 µg/mL"}

----------
Record set of MIC for target or system Staphylococcus aureus ssp. aureus (ATCC 6538).

{"compound": "CO[C@H]1O[C@H](C[N+]2=C3CCCCCN3CCC2)[C@@H](OCc2ccccc2)[C@H](OC(=O)c2ccccc2)[C@H]1OC(=O)c1ccccc1 [Compound 3]", "MIC": "6.25 to 50 µg/mL"}
{"compound": "CCS[C@H]1O[C@H](C[N+]2=C3CCCCCN3CCC2)[C@@H](O)[C@H](O)[C@H]1O [Compound 47]", "MIC": "> 100 µg/mL"}
{"compound": "CCS[C@H]1O[C@H](C[N+]2=C3CCCCCN3CCC2)[C@@H](OCc2ccc3ccccc3c2)[C@@H](OCc2ccccc2)[C@H]1OCc1ccccc1 [Compound 29]", "MIC": "6.25 to 50 µg/mL"}

----------
List of MIC tested on Escherichia coli (ATCC 8739).
test readout: MIC

{"mol smiles": "CCS[C@H]1O[C@H](C[N+]2=C3CCCCCN3CCC2)[C@@H](OCc2ccc3ccccc3c2)[C@H](OCc2ccccc2)[C@H]1OCc1ccccc1", "test readout": "MIC", "observed result": "≥ 100 µg/mL"}
{"mol smiles": "CCS[C@H]1O[C@H](C[N+]2=C3CCCCCN3CCC2)[C@@H](O)[C@H](OCc2ccccc2)[C@H]1OCc1ccccc1", "test readout": "MIC", "observed result": "> 100 µg/mL"}
{"mol smiles": "CCS[C@H]1O[C@H](C[N+]2=C3CCCCCN3CCC2)[C@@H](OCc2ccc3ccccc3c2)[C@H](OC(=O)c2ccccc2)[C@H]1OCc1ccccc1", "test readout": "MIC", "observed result": "> 100 µg/mL"}
{"mol smiles": "O=C(O[C@H]1[C@@H](OCc2ccccc2)[C@H](O)[C@@H](C[N+]2=C3CCCCCN3CCC2)O[C@@H]1Sc1ccccc1)c1ccccc1", "test readout": "MIC", "observed result": "> 100 µg/mL"}
{"mol smiles": "O[C@H]1[C@@H](OCc2ccccc2)[C@H](OCc2ccc3ccccc3c2)[C@@H](C[N+]2=C3CCCCCN3CCC2)O[C@@H]1Sc1ccccc1", "test readout": "MIC", "observed result": "> 100 µg/mL"}
{"mol smiles": "CCS[C@H]1O[C@H](C[N+]2=C3CCCCCN3CCC2)[C@@H](OCc2ccc3ccccc3c2)[C@@H](OC(=O)c2ccccc2)[C@H]1OC(=O)c1ccccc1", "test readout": "MIC", "observed result": "≥ 100 µg/mL"}
{"mol smiles": "O[C@@H]1[C@H](OCc2ccccc2)[C@@H](Sc2ccccc2)O[C@H](C[N+]2=C3CCCCCN3CCC2)[C@H]1OCc1ccccc1", "test readout": "MIC", "observed result": "> 100 µg/mL"}
{"mol smiles": "O[C@H]1[C@H](OCc2ccccc2)[C@H](OCc2ccccc2)[C@@H](Sc2ccccc2)O[C@@H]1C[N+]1=C2CCCCCN2CCC1", "test readout": "MIC", "observed result": "> 100 µg/mL"}
{"mol smiles": "O=C(O[C@H]1[C@H](OC(=O)c2ccccc2)[C@@H](Sc2ccccc2)O[C@H](C[N+]2=C3CCCCCN3CCC2)[C@H]1OCc1ccc2ccccc2c1)c1ccccc1", "test readout": "MIC", "observed result": "> 100 µg/mL"}
{"mol smiles": "c1ccc(CO[C@@H]2[C@H](OCc3ccccc3)[C@@H](Sc3ccccc3)O[C@H](C[N+]3=C4CCCCCN4CCC3)[C@H]2OCc2ccc3ccccc3c2)cc1", "test readout": "MIC", "observed result": "≥ 100 µg/mL"}
{"mol smiles": "O[C@@H]1[C@H](O)[C@@H](Sc2ccccc2)O[C@H](C[N+]2=C3CCCCCN3CCC2)[C@H]1OCc1ccc2ccccc2c1", "test readout": "MIC", "observed result": "> 100 µg/mL"}
{"mol smiles": "CO[C@H]1O[C@H](C[N+]2=C3CCCCCN3CCC2)[C@@H](OCc2ccccc2)[C@H](O)[C@H]1O", "test readout": "MIC", "observed result": "> 100 µg/mL"}
{"mol smiles": "CO[C@H]1O[C@H](C[N+]2=C3CCCCCN3CCC2)[C@@H](OCc2ccccc2)[C@H](OC(=O)c2ccccc2)[C@H]1OC(=O)c1ccccc1", "test readout": "MIC", "observed result": "> 100 µg/mL"}
{"mol smiles": "c1ccc(CO[C@H]2[C@@H](OCc3ccc4ccccc4c3)[C@H](OCc3ccccc3)[C@@H](C[N+]3=C4CCCCCN4CCC3)O[C@@H]2Sc2ccccc2)cc1", "test readout": "MIC", "observed result": "> 100 µg/mL"}
{"mol smiles": "CCS[C@H]1O[C@H](C[N+]23CCN(CC2)CC3)[C@@H](OCc2ccc3ccccc3c2)[C@@H](OC(=O)c2ccccc2)[C@H]1OC(=O)c1ccccc1", "test readout": "MIC", "observed result": "≥ 100 µg/mL"}
{"mol smiles": "O=C(O[C@@H]1[C@H](OC(=O)c2ccccc2)[C@@H](Sc2ccccc2)O[C@H](C[N+]2=C3CCCCCN3CCC2)[C@H]1OCc1ccc2ccccc2c1)c1ccccc1", "test readout": "MIC", "observed result": "> 100 µg/mL"}
{"mol smiles": "CCS[C@H]1O[C@H](C[N+]2=C3CCCCCN3CCC2)[C@@H](OCc2ccc3ccccc3c2)[C@@H](OCc2ccccc2)[C@H]1OCc1ccccc1", "test readout": "MIC", "observed result": "> 100 µg/mL"}
{"mol smiles": "CCS[C@H]1O[C@H](C[N+]2=C3CCCCCN3CCC2)[C@@H](OCc2ccc3ccccc3c2)[C@H](OC(=O)c2ccccc2)[C@H]1OC(=O)c1ccccc1", "test readout": "MIC", "observed result": "> 100 µg/mL"}
{"mol smiles": "c1ccc(CO[C@H]2[C@H](OCc3ccccc3)[C@@H](Sc3ccccc3)O[C@H](C[N+]3=C4CCCCCN4CCC3)[C@H]2OCc2ccc3ccccc3c2)cc1", "test readout": "MIC", "observed result": "> 100 µg/mL"}
{"mol smiles": "CCS[C@H]1O[C@H](C[N+]2=C3CCCCCN3CCC2)[C@@H](OCc2ccc3ccccc3c2)[C@H](O)[C@H]1O", "test readout": "MIC", "observed result": "> 100 µg/mL"}
{"mol smiles": "O=C(O[C@H]1[C@@H](OCc2ccccc2)[C@H](OCc2ccc3ccccc3c2)[C@@H](C[N+]2=C3CCCCCN3CCC2)O[C@@H]1Sc1ccccc1)c1ccccc1", "test readout": "MIC", "observed result": "≥ 100 µg/mL"}
{"mol smiles": "CCS[C@H]1O[C@H](C[N+]2=C3CCCCCN3CCC2)[C@@H](O)[C@H](O)[C@H]1O", "test readout": "MIC", "observed result": "> 100 µg/mL"}
